System: KRAS patient-derived spheroids with HUVEC/MSC, viability;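 also: spheroids exposed to agents for seven days before readout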
Test: Anticancer human tumor 941728-121-R-J1-PDC patient-derived lung adenocarcinoma cell line growth inhibition [KRAS2]; active = viability on the fitted dose curve at most 10% of control; inactive = the rest
Conditions: second compound 3.16 µM; first compound 0.0001 µM
Text: Multicellular complex tumor spheroid response to RAS pathway inhibitors in combination with a targeted agents in patient-derived cell lines with oncogenic KRAS variants from multiple cancer types A high-throughput screen of multi-cell type tumor spheroids was designed to identify active combinations of targeted small molecules and KRAS pathway inhibitors. […] Compounds. […] If the clinical Cmax for an agent had not been determined, the highest concentration tested was 10 microM. […]
Could you please pick one outcome from this set? active, inactive

Before answering, review these 4 worked examples.
[[record]]
compound = "CC(=O)Nc1cccc(-n2c(=O)n(C3CC3)c(=O)c3c(Nc4ccc(I)cc4F)n(C)c(=O)c(C)c32)c1 + CNCc1ccccc1-c1csc(C(C)Nc2nc(C)nc3cc(OC)c(OC)cc23)c1"
cat = "active"

[[record]]
compound = "CC(=O)Nc1cccc(-n2c(=O)n(C3CC3)c(=O)c3c(Nc4ccc(I)cc4F)n(C)c(=O)c(C)c32)c1 + C=CC(=O)N1CCN(c2nc(=O)n(-c3c(C)ccnc3C(C)C)c3nc(-c4c(O)cccc4F)c(F)cc23)C(C)C1"
cat = "inactive"

[[record]]
compound = "CC(=O)Nc1cccc(-n2c(=O)n(C3CC3)c(=O)c3c(Nc4ccc(I)cc4F)n(C)c(=O)c(C)c32)c1 + C=CC(=O)N1CCN(c2nc(OCC3CCCN3C)nc3c2CCN(c2cccc4cccc(C)c24)C3)CC1CC#N"
cat = "active"

[[record]]
compound = "CC(=O)Nc1cccc(-n2c(=O)n(C3CC3)c(=O)c3c(Nc4ccc(I)cc4F)n(C)c(=O)c(C)c32)c1 + COc1cc2nc(C)nc(NC(C)c3cc(N)cc(C(F)(F)F)c3)c2cc1OC1CCOC1"
cat = "inactive"


Now look at this one.
Look up the recorded call for CC(=O)Nc1cccc(-n2c(=O)n(C3CC3)c(=O)c3c(Nc4ccc(I)cc4F)n(C)c(=O)c(C)c32)c1 + CC1OCC2(CCN(c3cnc(Sc4ccnc(N)c4Cl)c(N)n3)CC2)C1N in this test.
inactive
